Hey, just so you know, these numbers are from patent US8188063B2.

- target_of_assay: recombinant mouse A3 receptors (Mus musculus, UniProt Q61618)
- Sequence (Q61618 whole entry): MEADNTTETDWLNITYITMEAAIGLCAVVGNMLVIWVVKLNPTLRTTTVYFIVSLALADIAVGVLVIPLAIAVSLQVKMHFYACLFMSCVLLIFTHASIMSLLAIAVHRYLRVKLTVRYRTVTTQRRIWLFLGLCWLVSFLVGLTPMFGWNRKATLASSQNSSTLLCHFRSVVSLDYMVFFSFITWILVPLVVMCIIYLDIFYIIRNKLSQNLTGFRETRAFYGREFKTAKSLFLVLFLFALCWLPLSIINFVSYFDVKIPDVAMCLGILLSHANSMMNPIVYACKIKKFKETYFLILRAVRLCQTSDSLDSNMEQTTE
- protocol_summary: Radioligand competition binding to recombinant mouse A3 receptor (HEK293 membranes)
- protocol_conditions: high affinity conformational state, means ± SEM, at least six experiments, read-out: Binding affinity (Ki) A3R
observable: Ki (nM)

compound: CCNC(=O)[C@H]1O[C@@H](n2cnc3c(N)nc(C#CCC4CCN(C(=O)OC)CC4)nc32)[C@H](O)[C@@H]1O [ATL202]
target_of_assay: recombinant mouse A3 receptors (Mus musculus, UniProt Q61618)
result_unit: nM
Ki: 3.7

1: CCNC(=O)C1OC(n2cnc3c(N)nc(C#CCC4CCC(C(=O)OC)CC4)nc32)C(O)C1O (stereo not drawn) [ATL146e]
2: CCNC(=O)C1OC(n2cnc3c(N)nc(C#CCC4CCN(C(=O)OCC(C)C)CC4)nc32)C(O)C1O (stereo not drawn) [ATL210]
3: Nc1nc(NCCc2ccc(O)cc2)nc2nc(-c3ccco3)nn12 [ZM241385, reference compound]
4: COC(=O)N1CCC(CC#Cc2nc(N)c3ncn(C4OC(C(=O)NC5CC5)C(O)C4O)c3n2)CC1 (stereo not drawn) [ATL313]
Query: List from greatest to least Ki. Dear reader, please state the labels in the requested order.
Reply: 3, 4, 2, 1
(3: 16100 nM, 4: 19.3 nM, 2: 5.4 nM, 1: 3.3 nM)
